Known MIC of a selection of molecules
- Tested on: Sporothrix schenckii
- methodDescription: Antifungal activity against Sporothrix schenckii P1621 isolate from cutaneous-lymphatic sporotrichosis patient after 72 hrs by modified NCCLS M38-A method
- Format: functional
Quick reminder: number only, in µg/mL, skip the unit.

Past entries and their recorded results:
query: Return value of MIC for input C[C@@H](c1ncncc1F)[C@](O)(Cn1cncn1)c1ccc(F)cc1F , no commentary.
result: 16

query: Return value of MIC for input CCC(C)n1ncn(-c2ccc(N3CCN(c4ccc(OCC5COC(Cn6cncn6)(c6ccc(Cl)cc6Cl)O5)cc4)CC3)cc2)c1=O (centres undefined) , no commentary.
result: 1

---
query: Return value of MIC for input C[C@@H]1[C@H](O)[C@@H](C)/C=C/C=C/C=C/C=C/C=C/C=C/C=C/[C@H](O[C@@H]2O[C@H](C)[C@@H](O)[C@H](N)[C@@H]2O)C[C@@H]2O[C@](O)(C[C@@H](O)C[C@@H](O)[C@H](O)CC[C@@H](O)C[C@@H](O)CC(=O)O[C@H]1C)C[C@H](O)[C@H]2C(=O)O , no commentary.
result: 0.125
